Test Summary: CCTE_Simmons_MITO_inhib_resp_rate: CCTE's HepG2 Seahorse XF Respirometric Screening Assay at Inhibited Respiratory State [full ETC block], Simmons Lab (AID 2284006)
Study Conditions: actives raise or lower the signal
Calls of active or inactive are those of the source. The calls were made as follows: active = hit-call score of the fitted dose curve at least 0.9, where 1 is the maximum; inactive = score below 0.9.
Tick one outcome: T = active, F = inactive

Recorded results for 3 compounds are shown here.
[
  {
    "Compound": "CCCN(CCOc1c(Cl)cc(Cl)cc1Cl)C(=O)n1ccnc1",
    "Classification": "F"
  },
  {
    "Compound": "O=C(O)CCCOc1ccc(Cl)cc1Cl",
    "Classification": "F"
  },
  {
    "Compound": "CCOC1Oc2ccc(OS(C)(=O)=O)cc2C1(C)C (configuration not stated)",
    "Classification": "T"
  }
]

Hey, what did the test say about COP(=S)(OC)Oc1ccc([N+](=O)[O-])cc1 ?
F

Check the results log: what was the call for CCOCN(C(=O)CCl)c1c(C)cccc1CC ?
F

For this compound, state the assay outcome: N#Cc1c(Cl)c(Cl)c(Cl)c(C#N)c1Cl
F

Per the records of this test, what outcome belongs to CCC(C)(NC(=O)c1cc(Cl)c(C)c(Cl)c1)C(=O)CCl (configuration not stated) ?
F

* * *

Assayed System: Aryl hydrocarbon receptor (Homo sapiens)
Test Summary: ATG_Ahr_CIS: Attagene CIS-FACTORIAL HepG2 Assay for human Aryl Hydrocarbon Receptor (Ahr) (AID 2282930)
Study Conditions: HepG2 AhR cis-factorial reporter transcription; actives raise or lower the signal
Active and inactive are the calls of the source. Rule for the calls: active = hit-call score of the fitted dose curve at least 0.9, where 1 is the maximum; inactive = score below 0.9.
Just give me one of these, please: yes (active), no (inactive)

[
  {
    "Compound": "COc1nn(CSP(=S)(OC)OC)c(=O)s1",
    "Classification": "no"
  }
]

Outcome? N#CN
no

Hi, do you know how O=C(O)C(F)(F)C(F)(F)C(F)(F)C(F)(F)C(F)(F)C(F)(F)C(F)(F)F came out in this test?
no

# lookup: test call for [2H]C1([2H])[n+]2ccccc2-c2cccc[n+]2C1([2H])[2H]
no

Answer briefly: the call reported for COc1cc(OC)nc(NC(=O)NS(=O)(=O)c2cc(NC=O)ccc2C(=O)N(C)C)n1 in this assay.
no

Fill in: this test's call for CCc1ccc(C(=O)NN(C(=O)c2cc(C)cc(C)c2)C(C)(C)C)cc1 is ___
no

Lab log entry: CCOc1nc(NC)nc(NC(=O)NS(=O)(=O)c2ccccc2C(=O)OC)n1 — outcome as called in the assay?
no

Kindly provide the recorded test outcome for the following compound: O=C(O)CCCOc1ccc(Cl)cc1Cl
no

What classification did CCOC1Oc2ccc(OS(C)(=O)=O)cc2C1(C)C (stereo not given) end up with in this test?
no

Entry N#Cc1c(Cl)c(Cl)c(Cl)c(C#N)c1Cl : call = ?
no

// param item: CCS(=O)(=O)c1cccnc1S(=O)(=O)NC(=O)Nc1nc(OC)cc(OC)n1 ; yields the recorded call
no

Identify the outcome logged in this assay for the compound shown: CNC(=O)Oc1cccc(N=CN(C)C)c1
yes

# lookup: test call for Cc1cc(C)nc(NC(=O)NS(=O)(=O)c2ccccc2C(=O)OC2COC2)n1
no

Could you check what this test reported for CCC(C)(NC(=O)c1cc(Cl)c(C)c(Cl)c1)C(=O)CCl (stereo not given) ?
no

Please let me know the test result on file for CNC(=O)Oc1ccccc1OC(C)C .
no

Please share the test call associated with C[C@H]1[C@H](c2ccc(Cl)cc2)SC(=O)N1C(=O)NC1CCCCC1 .
no

Identify the outcome logged in this assay for the compound shown: Cc1[nH]c(=O)n(C(C)(C)C)c(=O)c1Cl
no

Please share the test call associated with COC(=O)c1ccccc1CS(=O)(=O)NC(=O)Nc1nc(OC)cc(OC)n1 .
no

For C#CCN1C(=O)COc2cc(F)c(N3C(=O)C4=C(CCCC4)C3=O)cc21 , which call appears in the assay record?
no

Look up the recorded call for CC(C)(C)C(O)/C(=C\c1ccc(Cl)cc1Cl)n1cncn1 (stereo not given) in this test.
no
